protocol details: Cytotoxicity against african green monkey Vero cells after 72 hrs by MTT assay
Type: cell-based
settings: chlorocebus sabaeus, read-out: MIC50
Measured CC50 at 72 h by item
Use µM as the unit, but write only the number.

Please give the measured CC50 at 72 h for this compound: "O=CNCCCC[C@H](NC(=O)[C@@H]1COC(c2ccccc2O)=N1)C(=O)O"
164

Please give the measured CC50 at 72 h for this compound: "O=CNCCCC[C@@H](NC(=O)[C@@H]1COC(c2ccccc2O)=N1)C(=O)O"
154

* * *

Measured MIC99 by item
Tested on: Candida albicans
protocol details: Antifungal activity against Candida albicans ATCC 10231 after 24 to 48 hrs
Assay type: functional

Some solved cases for reference:
- compound: "O=CNCCCC[C@@H](NC(=O)[C@@H]1COC(c2ccccc2O)=N1)C(=O)O"
  MIC99: "> 100 µM"
- compound: "O=CNCCCC[C@H](NC(=O)[C@@H]1COC(c2ccccc2O)=N1)C(=O)O"
  MIC99: "> 100 µM"
- compound: "O=CNCCCC[C@H](NC(=O)[C@H]1COC(c2ccccc2O)=N1)C(=O)O"
  MIC99: "> 100 µM"

Please give the measured MIC99 for this compound: "O=CNCCCC[C@@H](NC(=O)[C@H]1COC(c2ccccc2O)=N1)C(=O)O"
> 100 µM

Please give the measured MIC99 for this compound: O=CNCCCCC(NC(=O)C1COC(c2ccccc2O)=N1)C(=O)O (stereo not given) [TRANSVALENCIN Z]
> 64 µg/mL
